Measured pIC50, listed per entry.
Tested on: Hepatitis B virus
Assay: Antiviral activity against Hepatitis B virus infected in human HepG2.2.15 cells assessed as inhibition of HBV DNA replication after 72 hrs by PCR analysis
Assay type: functional, organism-based
Conditions: HepG2 2.2.15, 72 h
pIC50: −log10 of the molar value.
metric_name: pIC50

{"compound": "C=CCc1ccc(Oc2cc(CC=C)ccc2O)cc1", "metric_name": "pIC50", "op": "=", "test_value": 4.89}
{"compound": "C=CCc1ccc(O[C@@H]2O[C@H](CO)[C@@H](O)[C@H](O)[C@H]2O)c(-c2cc(C[C@@H](O)CO)ccc2O)c1", "metric_name": "pIC50", "op": "<", "test_value": 3.00}
{"compound": "COc1cc([C@H]2Oc3c(OC)cc(CCCO)cc3[C@@H]2CO)ccc1O [DIHYDRODEHYDRODICONIFERY ALCOHOL]", "metric_name": "pIC50", "op": "<", "test_value": 3.00}
{"compound": "C=CCc1ccc(O)c(-c2cc(CC=C)ccc2O)c1", "metric_name": "pIC50", "op": "=", "test_value": 5.06}

The reported measurements were obtained from ChEMBL document CHEMBL2346656.
